Cited source for all entries: patent US20100129807A1

- study-system: T1, bacterial repressor protein LexA (UniProt P0A7C2 1-202)
- T1 construct: One entry is used for LexA in all assays; also called LexA target (pEG202); LexA bait
- T1 sequence: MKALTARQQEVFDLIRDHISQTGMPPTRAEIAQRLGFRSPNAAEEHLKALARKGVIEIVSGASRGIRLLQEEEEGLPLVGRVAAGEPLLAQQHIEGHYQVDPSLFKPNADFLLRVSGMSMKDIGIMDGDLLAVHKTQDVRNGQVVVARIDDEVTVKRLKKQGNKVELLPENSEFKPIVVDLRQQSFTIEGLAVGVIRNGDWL
- test-summary: SPR (BiacoreX), L2 peptide immobilised on a CM5 chip, LexA injected
Where no end group is shown, it is not given here.
reported-metric: Kd (nM)
Report the value in nM with no unit label.

Incoming: Return value of Kd for input H-GRKKRRQRRRPPQSRSWDLPGEY (Immobilised on a CM5 sensor chip for SPR) , no commentary.
Outgoing: 1700
